Experimental readout: melting point

Sample answers from the record:
{"Smiles data": "COc1ccc(S(=O)(=O)N(Cc2ccccc2)c2cc(OC)c(OC)cc2Br)cc1", "Result": "114 to 120 °C"}
{"Smiles data": "COc1ccc(S(=O)(=O)Nc2cc(OC)cc(OC)c2)cc1", "Result": "115 to 122 °C"}
{"Smiles data": "COc1ccc(S(=O)(=O)N(C)c2cc(OC)ccc2OC)cc1", "Result": "105 to 110 °C"}
{"Smiles data": "COc1ccc(S(=O)(=O)N(C)c2cc(OC)c(OC)cc2OC)cc1", "Result": "137 to 143 °C"}
{"Smiles data": "COc1ccc(S(=O)(=O)N(CC(=O)O)c2cc(OC)c(Br)cc2OC)cc1", "Result": "180 to 184 °C"}

## Input Please report the recorded melting point for COc1ccc(S(=O)(=O)N(C)c2cc(OC)cc(OC)c2Br)cc1 .
## Output 156 to 160 °C

## Input Please report the recorded melting point for CCOC(=O)CN(c1cc(OC)c(OC)cc1Br)S(=O)(=O)c1ccc(OC)cc1 .
## Output 116 to 126 °C

## Input Please report the recorded melting point for COc1ccc(S(=O)(=O)N(CC#N)c2cc(OC)c(OC)cc2Br)cc1 .
## Output 76 to 84 °C

## Input Please report the recorded melting point for COc1ccc(S(=O)(=O)N(C)c2cc(OC)c(Br)cc2OC)cc1 .
## Output 132 to 133 °C

## Input Please report the recorded melting point for COc1ccc(S(=O)(=O)Nc2cc(OC)c(Br)cc2OC)cc1 .
## Output 118 to 119 °C

## Input Please report the recorded melting point for CCN(c1cc(OC)cc(OC)c1)S(=O)(=O)c1ccc(OC)cc1 .
## Output 109 to 118 °C

---

- Assay target: microtubular protein isolated from calf brain (Bos taurus, UniProt P81947+Q6B856)
- Construct: isolated from calf brain according to the modified Shelanski method; from tissue; host or cells: calf brain
- Sequence (Q6B856 whole entry): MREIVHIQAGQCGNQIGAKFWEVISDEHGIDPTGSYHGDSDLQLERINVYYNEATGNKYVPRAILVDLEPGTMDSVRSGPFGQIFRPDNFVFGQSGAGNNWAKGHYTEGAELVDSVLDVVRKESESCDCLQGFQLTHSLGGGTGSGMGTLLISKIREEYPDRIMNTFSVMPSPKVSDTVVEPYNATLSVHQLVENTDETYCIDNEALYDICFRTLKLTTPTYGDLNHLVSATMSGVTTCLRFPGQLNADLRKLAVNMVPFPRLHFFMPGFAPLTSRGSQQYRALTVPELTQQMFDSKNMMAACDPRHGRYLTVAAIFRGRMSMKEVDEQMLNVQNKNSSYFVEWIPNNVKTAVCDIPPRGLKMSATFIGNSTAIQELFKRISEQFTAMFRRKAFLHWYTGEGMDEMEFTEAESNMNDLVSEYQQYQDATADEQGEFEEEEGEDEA
- Sequence (P81947 whole entry): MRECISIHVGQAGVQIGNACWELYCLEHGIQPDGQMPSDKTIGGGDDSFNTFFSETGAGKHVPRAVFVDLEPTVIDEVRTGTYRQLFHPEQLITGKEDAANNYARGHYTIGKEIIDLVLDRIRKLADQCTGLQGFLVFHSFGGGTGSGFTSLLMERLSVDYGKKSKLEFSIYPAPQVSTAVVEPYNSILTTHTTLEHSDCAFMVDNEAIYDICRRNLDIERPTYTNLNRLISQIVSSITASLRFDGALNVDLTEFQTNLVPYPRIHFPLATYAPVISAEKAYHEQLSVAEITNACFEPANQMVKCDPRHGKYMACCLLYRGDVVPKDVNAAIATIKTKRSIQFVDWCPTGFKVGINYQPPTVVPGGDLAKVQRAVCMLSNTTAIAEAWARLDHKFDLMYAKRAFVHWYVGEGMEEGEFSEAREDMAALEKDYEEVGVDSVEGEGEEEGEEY
- Protocol description: Inhibition of tubulin polymerisation (turbidity)
- Assay type: biochemical
- Condition summary: 10 µM compound, 1.5 mg/mL microtubular protein
Experimental readout: TPI % 10 µM (%)

Sample answers from the record:
{"Compound": "COc1ccc(S(=O)(=O)Nc2cc(OC)cc(OC)c2)cc1 [Compound 1]", "Readout number": 0}
{"Compound": "COc1ccc(S(=O)(=O)N(CC#N)c2cc(OC)c(OC)cc2Br)cc1 [Compound 16]", "Readout number": 16}
{"Compound": "CCOC(=O)N(c1cc(OC)c(Br)cc1OC)S(=O)(=O)c1ccc(OC)cc1 [Compound 27]", "Readout number": 44}

A = COc1ccc(S(=O)(=O)Nc2cccnc2Nc2ccc(O)cc2)cc1 [ABT-751, reference compound]
B = CCN(c1cc(OC)cc(OC)c1)S(=O)(=O)c1ccc(OC)cc1 [Compound 3]
C = CCN(c1cc(OC)c(OC)cc1OC)S(=O)(=O)c1ccc(OC)cc1 [Compound 34]
D = COc1ccc(S(=O)(=O)N(CC(=O)O)c2cc(OC)c(Br)cc2OC)cc1 [Compound 29]
E = COc1ccc(S(=O)(=O)N(Cc2ccccc2)c2cc(OC)c(OC)cc2Br)cc1 [Compound 18]
## Input Order field: TPI % 10 µM | Direction: descending (largest first) # answer = labels listed in requested order
## Output A, E, C, D, B
(A: 69%, E: 38%, C: 19%, D: 8%, B: 0%)

---

- Assay target: microtubular protein isolated from calf brain (Bos taurus, UniProt P81947+Q6B856)
- Construct: isolated from calf brain according to the modified Shelanski method; from tissue; host or cells: calf brain
- Protocol description: Inhibition of tubulin polymerisation (turbidity)
- Assay type: biochemical
- Condition summary: 10 µM compound, 1.5 mg/mL microtubular protein
Experimental readout: TPI % 10 µM (%)

Sample answers from the record:
{"Molecule": "COc1ccc(S(=O)(=O)N(CC2CO2)c2cc(OC)c(Br)cc2OC)cc1 (stereo not drawn) [Compound 28]", "Unit abbrev": "%", "Readout number": 32}
{"Molecule": "COc1ccc(S(=O)(=O)N(Cc2ccccc2)c2cc(OC)cc(OC)c2)cc1 [Compound 6]", "Unit abbrev": "%", "Readout number": 0}
{"Molecule": "COc1ccc(S(=O)(=O)Nc2cc(OC)c(OC)cc2OC)cc1 [Compound 32]", "Unit abbrev": "%", "Readout number": 3}
{"Molecule": "COc1ccc(S(=O)(=O)N(C)c2ccc(OC)c(OC)c2)cc1 [Compound 12]", "Unit abbrev": "%", "Readout number": 0}
{"Molecule": "COc1ccc(S(=O)(=O)Nc2cc(OC)c(OC)cc2Br)cc1 [Compound 13]", "Unit abbrev": "%", "Readout number": 0}

P = COc1ccc(S(=O)(=O)N(Cc2ccccc2)c2cc(OC)c(OC)cc2OC)cc1 [Compound 37]
Q = COc1ccc(S(=O)(=O)Nc2ccc(OC)c(OC)c2)cc1 [Compound 11]
R = COc1ccc(S(=O)(=O)N(C)c2cc(OC)cc(OC)c2Br)cc1 [Compound 8b]
## Input Please order the records by their reported TPI % 10 µM, lowest number first. # answer = labels listed in requested order
## Output R, Q, P

---

Collected Selectivity index HEK293 vs HeLa and MCF7 tumour cells values appear next to each entry.
- System: HEK293 (human embryonic kidney) cells
- Protocol description: Cell growth assay (XTT), non-tumorigenic HEK293
- Type: cell-based

Sample answers from the record:
{"Compound": "COc1ccc(S(=O)(=O)Nc2cc(OC)c(Br)cc2OC)cc1 [Compound 23]", "Result": "0.5 to 2 fold"}
{"Compound": "COc1ccc(S(=O)(=O)N(C)c2cc(OC)c(Br)cc2OC)cc1 [Compound 24]", "Result": "3- to 5 fold"}
{"Compound": "COc1ccc(S(=O)(=O)N(CC#N)c2cc(OC)c(Br)cc2OC)cc1 [Compound 25]", "Result": "0.5 to 2 fold"}

## Input Please report the recorded Selectivity index HEK293 vs HeLa and MCF7 tumour cells for COc1ccc(S(=O)(=O)N(C)c2cc(OC)ccc2OC)cc1 [Compound 22] .
## Output 3- to 5 fold

---

Experimental readout: melting point

Sample answers from the record:
{"Smiles data": "COc1ccc(S(=O)(=O)Nc2ccc(OC)c(OC)c2)cc1", "melting point": "101 to 102 °C"}
{"Smiles data": "COc1ccc(S(=O)(=O)N(CC#N)c2cc(OC)cc(OC)c2)cc1", "melting point": "92 to 96 °C"}
{"Smiles data": "CCN(c1cc(OC)cc(OC)c1Br)S(=O)(=O)c1ccc(OC)cc1", "melting point": "141 to 144 °C"}

## Input Please report the recorded melting point for COc1ccc(S(=O)(=O)N(Cc2ccccc2)c2cc(OC)c(OC)cc2OC)cc1 .
## Output 130 to 139 °C

## Input Please report the recorded melting point for COc1ccc(S(=O)(=O)N(C)c2cc(OC)cc(OC)c2)cc1 .
## Output 120 to 128 °C

## Input Please report the recorded melting point for CCOC(=O)CN(c1cc(OC)c(OC)cc1OC)S(=O)(=O)c1ccc(OC)cc1 .
## Output 127 to 132 °C

## Input Please report the recorded melting point for COc1ccc(S(=O)(=O)Nc2cc(OC)c(OC)cc2OC)cc1 .
## Output 112 to 114 °C

## Input Please report the recorded melting point for COc1ccc(S(=O)(=O)N(C)c2cc(OC)c(OC)cc2Br)cc1 .
## Output 136 to 141 °C

## Input Please report the recorded melting point for COc1ccc(S(=O)(=O)Nc2cc(OC)ccc2OC)cc1 .
## Output 114 to 115 °C

---

- Assay target: microtubular protein isolated from calf brain (Bos taurus, UniProt P81947+Q6B856)
- Construct: isolated from calf brain according to the modified Shelanski method; from tissue; host or cells: calf brain
- Protocol description: Inhibition of tubulin polymerisation (turbidity)
- Type: biochemical
- Condition summary: 10 µM compound, 1.5 mg/mL microtubular protein
- Experimental: Microtubular protein was isolated from calf brain according to the modified Shelanski method[23]^,[24] by two cycles of temperature-dependent assembly/disassembly and stored at −80 °C. Before each use, protein concentration is determined by Bradford method[25] taking BSA as standard. […] The assembly process was initiated by a temperature shift to 37 °C and the turbidity produced by tubulin polymerisation can be measured by an absorbance increase. […]
Experimental readout: TPI % 10 µM (%)

Sample answers from the record:
{"Molecule": "COc1ccc(S(=O)(=O)Nc2cc(OC)ccc2OC)cc1 [Compound 21]", "Unit abbrev": "%", "TPI % 10 µM": 0}
{"Molecule": "COc1ccc(S(=O)(=O)N(Cc2ccccc2)c2cc(OC)c(Br)c(OC)c2)cc1 [Compound 10a]", "Unit abbrev": "%", "TPI % 10 µM": 0}
{"Molecule": "COc1ccc(S(=O)(=O)N(Cc2ccccc2)c2cc(OC)c(Br)c(OC)c2Br)cc1 [Compound 10c]", "Unit abbrev": "%", "TPI % 10 µM": 0}
{"Molecule": "CCOC(=O)CN(c1cc(OC)c(OC)cc1OC)S(=O)(=O)c1ccc(OC)cc1 [Compound 36]", "Unit abbrev": "%", "TPI % 10 µM": 0}
{"Molecule": "COc1ccc(/C=C\\c2cc(OC)c(OC)c(OC)c2)cc1O [Combretastatin A-4, combretastatin A-4, reference compound]", "Unit abbrev": "%", "TPI % 10 µM": 100}

1 = CCOC(=O)CN(c1cc(OC)c(OC)cc1Br)S(=O)(=O)c1ccc(OC)cc1 [Compound 17]
2 = COc1ccc(S(=O)(=O)N(CC#N)c2cc(OC)c(OC)cc2OC)cc1 [Compound 35]
3 = COc1ccc(S(=O)(=O)N(C)c2cc(OC)c(Br)c(OC)c2)cc1 [Compound 8a]
4 = CCOC(=O)CN(c1cc(OC)c(Br)cc1OC)S(=O)(=O)c1ccc(OC)cc1 [Compound 26]
## Input Please order the records by their reported TPI % 10 µM, lowest number first. # answer = labels listed in requested order
## Output 1, 2, 3, 4
(1: 0%, 2: 5%, 3: 10%, 4: 28%)
